# measurement-target: MELK (Homo sapiens, UniProt Q14680)
# Sequence (Q14680 whole entry, looked up): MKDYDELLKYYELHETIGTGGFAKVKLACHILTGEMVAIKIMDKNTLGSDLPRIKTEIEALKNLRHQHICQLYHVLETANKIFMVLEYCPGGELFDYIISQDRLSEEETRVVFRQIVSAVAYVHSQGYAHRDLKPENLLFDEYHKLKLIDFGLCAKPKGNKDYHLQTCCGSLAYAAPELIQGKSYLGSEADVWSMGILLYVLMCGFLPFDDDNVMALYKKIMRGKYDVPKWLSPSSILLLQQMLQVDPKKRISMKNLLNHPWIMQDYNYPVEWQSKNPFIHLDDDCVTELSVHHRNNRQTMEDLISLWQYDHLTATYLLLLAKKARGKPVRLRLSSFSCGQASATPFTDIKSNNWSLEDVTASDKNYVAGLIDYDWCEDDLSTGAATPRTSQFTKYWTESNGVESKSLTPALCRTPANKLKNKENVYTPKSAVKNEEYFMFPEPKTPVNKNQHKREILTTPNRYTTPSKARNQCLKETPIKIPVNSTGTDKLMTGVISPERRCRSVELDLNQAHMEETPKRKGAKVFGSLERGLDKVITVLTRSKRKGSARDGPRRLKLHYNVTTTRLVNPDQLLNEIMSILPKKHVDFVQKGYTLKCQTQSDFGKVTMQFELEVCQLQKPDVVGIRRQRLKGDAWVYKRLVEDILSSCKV
# method-description: Kinase assay: MELK activity, phosphorylation of FITC-labeled histone H3 peptide measured by IMAP fluorescence polarization
# Assay type: biochemical
# condition-notes: 50 micro-M ATP, FITC-labeled histone H3 peptide substrate, IMAP fluorescence polarization; read-out: IC50 (μM) (kinase assay)
Lab note - cut at 0.005 µM for IC50: Criterion met if strictly below, Criterion not met if not.

Previously resolved entries follow.
molecule | class-label
COc1cc(-c2ccc3ncc(S(C)(=O)=O)c(Nc4ccc(CN(C)C)cc4)c3c2)cc(Cl)c1O [Example 410] | Criterion not met
CC(C)C(=O)c1cnc2ccc(-c3ccc(O)c(Cl)c3)cc2c1N1CCC(CN2CCCC2)CC1 [Example 318] | Criterion not met
COc1cc(-c2ccc3ncc(C(=O)C4CC4)c(Nc4ccc(CN(C)C)cc4)c3c2)cc(Cl)c1O [Example 339] | Criterion met
CC(C)C(=O)c1cnc2ccc(-c3cc(F)c(O)c(Cl)c3)cc2c1N[C@H]1CC[C@H](N)CC1 [Example 205] | Criterion not met
CN1CCN(C2CCN(c3c(C(=O)C4CC4)cnc4ccc(-c5cc(F)c(O)c(Cl)c5)cc34)CC2)CC1 [Example 349] | Criterion met

A record lists CN(C)CC(=O)N1CCN(c2c(C(=O)C3CC3)cnc3ccc(-c4ccc(O)c(Cl)c4)cc23)CC1 [Example 441] . Is its IC50 below 0.005 µM?
Criterion met

A record lists CN1CCN(C(=O)CNc2c(C(=O)C3CC3)cnc3ccc(-c4ccc(O)c(Cl)c4)cc23)CC1 [Example 393] . Is its IC50 below 0.005 µM?
Criterion not met
